Data provenance: paper PMC7150870

- System: Caco-2 cells
- details: human (Caco-2), mouse (RAW 264.7)
Marks after values point to notes of the source that are not given here.
In this section we review reported transepithelial transport, Total values for a set of molecules.

Here's what some known entries look like.
{"molecule": "CC[C@H](C)[C@H]1C(=O)O[C@H](C(C)C)C(=O)N(C)[C@@H](C(C)C)C(=O)O[C@H](C(C)C)C(=O)N(C)[C@@H](C(C)C)C(=O)O[C@H](C(C)C)C(=O)N1C [ENN-B1, enniatin B1]", "target under test": "Caco-2 cells", "transepithelial transport, Total": "39.72 ± 4.74^ab %"}
{"molecule": "CC(C)[C@H]1C(=O)O[C@H](C(C)C)C(=O)N(C)[C@@H](C(C)C)C(=O)O[C@H](C(C)C)C(=O)N(C)[C@@H](C(C)C)C(=O)O[C@H](C(C)C)C(=O)N1C [ENN-B, enniatin B]", "target under test": "Caco-2 cells", "transepithelial transport, Total": "51.02 ± 7.70^bc %"}
{"molecule": "COc1c(C)c2c(c(O)c1C/C=C(\\C)CCC(=O)O)C(=O)OC2 [MPA, mycophenolic acid, reference compound]", "target under test": "Caco-2 cells", "transepithelial transport, Total": "97.07 ± 0.27^e %"}
{"molecule": "COc1cc(C2Oc3cc([C@H]4Oc5cc(O)cc(O)c5C(=O)[C@@H]4O)ccc3OC2CO)ccc1O (some centres unmarked) [Silibinin, silibinin, reference compound]", "target under test": "Caco-2 cells", "transepithelial transport, Total": "67.58 ± 2.95^cd %"}
{"molecule": "Cc1cc(O)cc2oc(=O)c3c(O)cc(O)cc3c12 [AOH, alternariol]", "target under test": "Caco-2 cells", "transepithelial transport, Total": "99.08 ± 24.47^e %"}
{"molecule": "CC1=C[C@H]2O[C@@H]3[C@H](O)C[C@](C)([C@@]2(CO)[C@H](O)C1=O)[C@]31CO1 [DON, deoxynivalenol]", "target under test": "Caco-2 cells", "transepithelial transport, Total": "94.83 ± 2.14^e %"}

Q: // transepithelial transport, Total lookup, key: C[C@H]1CCCC(=O)CCC/C=C/c2cc(O)cc(O)c2C(=O)O1 [ZEA, zearalenone]
Ans: 86.70 ± 0.67^de %

Q: // transepithelial transport, Total lookup, key: CC(=O)OC[C@]12C[C@H](OC(=O)CC(C)C)C(C)=C[C@H]1O[C@@H]1[C@H](O)[C@@H](O)[C@@]2(C)[C@]12CO2 [HT-2, HT-2 toxin]
Ans: 121.83 ± 1.33^f %

* * *

- Tested on: Caco-2 cells
- details: human (Caco-2), mouse (RAW 264.7)
Marks after values point to notes of the source that are not given here.
In this section we review reported transepithelial transport, Raw 264.7 Cells values for a set of molecules.

Here's what some known entries look like.
{"molecule": "CC(=O)OC[C@]12C[C@H](OC(=O)CC(C)C)C(C)=C[C@H]1O[C@@H]1[C@H](O)[C@@H](O)[C@@]2(C)[C@]12CO2 [HT-2, HT-2 toxin]", "target under test": "Caco-2 cells", "result": "0.01 ± 0.00^a %"}
{"molecule": "CC1=C[C@H]2O[C@@H]3[C@H](O)C[C@](C)([C@@]2(CO)[C@H](O)C1=O)[C@]31CO1 [DON, deoxynivalenol]", "target under test": "Caco-2 cells", "result": "0.01 ± 0.00^a %"}
{"molecule": "CC[C@H](C)[C@H]1C(=O)O[C@H](C(C)C)C(=O)N(C)[C@@H](C(C)C)C(=O)O[C@H](C(C)C)C(=O)N(C)[C@@H](C(C)C)C(=O)O[C@H](C(C)C)C(=O)N1C [ENN-B1, enniatin B1]", "target under test": "Caco-2 cells", "result": "0.60 ± 0.10^c %"}
{"molecule": "COc1cc(C2Oc3cc([C@H]4Oc5cc(O)cc(O)c5C(=O)[C@@H]4O)ccc3OC2CO)ccc1O (some centres unmarked) [Silibinin, silibinin, reference compound]", "target under test": "Caco-2 cells", "result": "0.00 ± 0.00^a %"}
{"molecule": "COc1c(C)c2c(c(O)c1C/C=C(\\C)CCC(=O)O)C(=O)OC2 [MPA, mycophenolic acid, reference compound]", "target under test": "Caco-2 cells", "result": "0.02 ± 0.00^a %"}
{"molecule": "Cc1cc(O)cc2oc(=O)c3c(O)cc(O)cc3c12 [AOH, alternariol]", "target under test": "Caco-2 cells", "result": "0.07 ± 0.02^h %"}

Q: // transepithelial transport, Raw 264.7 Cells lookup, key: CC(C)[C@H]1C(=O)O[C@H](C(C)C)C(=O)N(C)[C@@H](C(C)C)C(=O)O[C@H](C(C)C)C(=O)N(C)[C@@H](C(C)C)C(=O)O[C@H](C(C)C)C(=O)N1C [ENN-B, enniatin B]
Ans: 0.31 ± 0.03^b %

Q: // transepithelial transport, Raw 264.7 Cells lookup, key: C[C@H]1CCCC(=O)CCC/C=C/c2cc(O)cc(O)c2C(=O)O1 [ZEA, zearalenone]
Ans: 0.05 ± 0.01^a %
